Target: human DNC (mitochondrial deoxynucleotide carrier) (Homo sapiens, UniProt Q9HC21)
Construct: Amino acids are numbered from 1-320; made in house; host or cells: E. coli BL21(DE3), pET21b; inclusion bodies solubilized in sarkosyl, Ni-NTA purified
Sequence (Q9HC21 2-320 limits assumed): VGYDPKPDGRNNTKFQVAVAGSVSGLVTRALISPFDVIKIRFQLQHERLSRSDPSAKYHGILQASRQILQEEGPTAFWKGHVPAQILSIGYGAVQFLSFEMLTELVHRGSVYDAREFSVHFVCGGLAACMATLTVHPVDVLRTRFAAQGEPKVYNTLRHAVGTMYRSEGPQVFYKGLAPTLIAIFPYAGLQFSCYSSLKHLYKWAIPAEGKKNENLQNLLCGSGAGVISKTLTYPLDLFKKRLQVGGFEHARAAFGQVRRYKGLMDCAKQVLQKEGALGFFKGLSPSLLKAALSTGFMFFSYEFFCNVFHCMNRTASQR
Assay: Homo-exchange of other carrier substrates in DNC proteoliposomes
Assay type: biochemical
Settings: internal concentration 10 mM; external concentration 1 mM
reportedEndpoint: homo-exchange catalysed by reconstituted DNC

molecule=NC(=O)CC[C@H](N)C(=O)O testtarget="human DNC (mitochondrial deoxynucleotide carrier) (Homo sapiens, UniProt Q9HC21)" testresult="did not catalyse"
molecule="O=C(O)CC(O)C(=O)O (stereo not shown) [malate]" testtarget="human DNC (mitochondrial deoxynucleotide carrier) (Homo sapiens, UniProt Q9HC21)" testresult="did not catalyse"
molecule="O=C(O)CCC(=O)C(=O)O [oxoglutarate]" testtarget="human DNC (mitochondrial deoxynucleotide carrier) (Homo sapiens, UniProt Q9HC21)" testresult="did not catalyse"
molecule=NCCC[C@H](N)C(=O)O testtarget="human DNC (mitochondrial deoxynucleotide carrier) (Homo sapiens, UniProt Q9HC21)" testresult="did not catalyse"
molecule="O=C(O)/C=C/C(=O)O [fumarate]" testtarget="human DNC (mitochondrial deoxynucleotide carrier) (Homo sapiens, UniProt Q9HC21)" testresult="did not catalyse"

### Prompt I'm curious: which homo-exchange catalysed by reconstituted DNC was measured for N[C@@H](CCC(=O)O)C(=O)O [glutamate] tested on human DNC (mitochondrial deoxynucleotide carrier) (Homo sapiens, UniProt Q9HC21)?
### Response did not catalyse

### Prompt Query C[N+](C)(C)CC(O)CC(=O)[O-] (stereo not shown) next
### Response did not catalyse

====

Target: human DNC (mitochondrial deoxynucleotide carrier) (Homo sapiens, UniProt Q9HC21)
Construct: Amino acids are numbered from 1-320; made in house; host or cells: E. coli BL21(DE3), pET21b; inclusion bodies solubilized in sarkosyl, Ni-NTA purified
Sequence (Q9HC21 2-320 limits assumed): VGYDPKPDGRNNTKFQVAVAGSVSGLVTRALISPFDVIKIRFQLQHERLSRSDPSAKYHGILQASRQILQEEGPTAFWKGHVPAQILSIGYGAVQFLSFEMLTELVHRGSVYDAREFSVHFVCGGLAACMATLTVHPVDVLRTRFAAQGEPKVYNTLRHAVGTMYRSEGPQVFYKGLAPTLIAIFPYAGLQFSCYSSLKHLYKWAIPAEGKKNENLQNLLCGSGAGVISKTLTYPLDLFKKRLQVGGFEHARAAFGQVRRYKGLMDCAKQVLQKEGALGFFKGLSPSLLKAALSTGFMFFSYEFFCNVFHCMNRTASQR
Experiment: Dependence of DNC activity ([α-35S]dATP uptake) on internal substrate
Type: biochemical
Details: internal substrate 10 mM; 2 min
reportedEndpoint: rate of [α-35 S]dATP uptake into proteoliposomes with internal substrate

Sample records with rate of [α-35 S]dATP uptake into proteoliposomes with internal substrate:
compound="Nc1cc[nH]c(=O)n1 [cytosine]" testtarget="human DNC (mitochondrial deoxynucleotide carrier) (Homo sapiens, UniProt Q9HC21)" testresult="virtually no activity"
compound="Nc1ncnc2c1ncn2[C@@H]1O[C@H](CO)[C@@H](O)[C@H]1O [adenosine]" testtarget="human DNC (mitochondrial deoxynucleotide carrier) (Homo sapiens, UniProt Q9HC21)" testresult="virtually no activity"
compound="NCC(=O)O [glycine]" testtarget="human DNC (mitochondrial deoxynucleotide carrier) (Homo sapiens, UniProt Q9HC21)" testresult="virtually no activity"
compound="NC(=O)C1=CN([C@@H]2O[C@H](COP(=O)(O)OP(=O)(O)OC[C@H]3O[C@@H](n4cnc5c(N)ncnc54)[C@H](O)[C@@H]3O)[C@@H](O)[C@H]2O)C=CC1 [NADH]" testtarget="human DNC (mitochondrial deoxynucleotide carrier) (Homo sapiens, UniProt Q9HC21)" testresult="virtually no activity"
compound="O=c1cc[nH]c(=O)[nH]1 [uracil]" testtarget="human DNC (mitochondrial deoxynucleotide carrier) (Homo sapiens, UniProt Q9HC21)" testresult="virtually no activity"
compound="Nc1ccn([C@@H]2O[C@H](COP(=O)(O)OP(=O)(O)O)[C@@H](O)[C@H]2O)c(=O)n1 [CDP]" testtarget="human DNC (mitochondrial deoxynucleotide carrier) (Homo sapiens, UniProt Q9HC21)" testresult="significant activities"
compound="O=C(O)CCC(=O)C(=O)O [oxoglutarate]" testtarget="human DNC (mitochondrial deoxynucleotide carrier) (Homo sapiens, UniProt Q9HC21)" testresult="virtually no activity"

// next entry
### Prompt Need rate of [α-35 S]dATP uptake into proteoliposomes with internal substrate, item O=c1ccn([C@@H]2O[C@H](COP(=O)(O)OP(=O)(O)O)[C@@H](O)[C@H]2O)c(=O)[nH]1 [UDP]
### Response significant activities

====

Target: human DNC (mitochondrial deoxynucleotide carrier) (Homo sapiens, UniProt Q9HC21)
Construct: Amino acids are numbered from 1-320; inclusion bodies solubilized in sarkosyl, Ni-NTA purified
Assay: Inhibition of [α-35S]dATP uptake (dATP/ADP exchange) by external substrates and carrier inhibitors
Conditions: read-out: Ki, competitive inhibition of [α-35 S]dATP uptake by external substrate
Quick list: Ki per entry.
Hi! Could you send only the number? It should be in µM, unit omitted.

compound="Nc1ncnc2c1ncn2[C@H]1CC[C@@H](COP(=O)(O)OP(=O)(O)OP(=O)(O)O)O1 [ddATP]" reportedendpoint=Ki displayunit=µM testresult=25

### Prompt Looking for the measured Ki of Nc1ccn([C@H]2CC[C@@H](COP(=O)(O)OP(=O)(O)OP(=O)(O)O)O2)c(=O)n1 [ddCTP] , can you help?
### Response 70

====

Target: human DNC (mitochondrial deoxynucleotide carrier) (Homo sapiens, UniProt Q9HC21)
Construct: Amino acids are numbered from 1-320; made in house; host or cells: E. coli BL21(DE3), pET21b; inclusion bodies solubilized in sarkosyl, Ni-NTA purified
Experiment: Dependence of DNC activity ([α-35S]dATP uptake) on internal substrate
Format: biochemical
Details: internal substrate 10 mM; 2 min
reportedEndpoint: rate of [α-35 S]dATP uptake into proteoliposomes with internal substrate

compound="O=C(O)CC(O)(CC(=O)O)C(=O)O [citrate]" testresult="virtually no activity"
compound=O=c1ccn([C@H]2C[C@H](O)[C@@H](CO)O2)c(=O)[nH]1 testresult="virtually no activity"
compound=Nc1nc2nc[nH]c2c(=O)[nH]1 testresult="virtually no activity"
